System: MDA-MB-231 breast
Test: NCI tumour cell line growth inhibition, 48 h
The entries below come with measured TGI values attached.

Reference set, count: 3
molecule	measured-on	assay-readout	reported
COC1(c2cccs2)c2ccccc2C(OC)(c2cccs2)c2ccccc21 (stereo not given)	MDA-MB-231 breast	TGI	> 100 µM
COc1ccc([C@]23CCN4COC[C@@H]([C@H]42)C2(CC3)OCC(C)(C)CO2)cc1OC	MDA-MB-231 breast	TGI	> 100 µM
CCCC(=O)NC(Nc1ccc(F)cc1)(C(F)(F)F)C(F)(F)F	MDA-MB-231 breast	TGI	> 100 µM

TGI recorded for this molecule, CCCc1nnc2sc(COc3cc(Cl)c(OCc4nn5c(CCC)nnc5s4)cc3Cl)nn12 , is > 100 µM

CCOC(=O)CCC(NC(=O)Cc1ccc(Oc2nc3ccccc3nc2-c2ccccc2)cc1)C(=O)OCC (stereo not given) has a reported TGI of > 100 µM

Entry under test: CCCN(CCC)C1CCc2c(ccc3cc[nH]c23)C1 (stereo not given) . Its TGI was > 100 µM

Form: molecule = CN(C)CCSCCO ; TGI = > 100 µM

According to the records, this molecule COc1cccc(CCC(=O)c2cc3c(N)c(C(=O)Nc4cccc(Cl)c4C)sc3nc2C)c1 displays TGI of > 78.6 µM

Quick note, TGI for O=C(O)CNC(=O)c1ccc2cc(C(=O)N3CC(CCl)c4ccc([N+](=O)[O-])cc43)[nH]c2c1 (stereo not given) landed at > 100 µM

Documented TGI of Cc1ccc(S(=O)(=O)n2ccc(-c3ccc4ccn(S(=O)(=O)c5ccc(C)cc5)c4c3)c2)cc1 : > 100 µM

response.value for CC1(C)CC([P+](c2ccccc2)(c2ccccc2)c2ccccc2)=NN1 (field: TGI) = > 100 µM

Looking up C=C1C(=O)OC2/C=C(\CO)CC/C=C(\CO)CC(OC(=O)C(C)C)C12 (stereo not given) , I see its TGI listed as 38 µM

Per the records, this molecule ( C=Cc1nc(C#N)c(N)o1 ) has TGI equal to > 100 µM

Record O=C(COc1cccc(/C=C2\Oc3ccc4ccccc4c3C2=O)c1)c1ccc(Cl)cc1 , field TGI: > 100 µM

The molecule listed as Cc1cc2oc(C)c(S(=O)(=O)NC(=O)Nc3ccc(Cl)cc3)c(=O)c2c(=O)o1 shows TGI equal to > 100 µM

In plain terms, N[C@H](CCC(=O)NCP(=O)(O)O)C(=O)O has a documented TGI of > 100 µM

Value of TGI reported for the molecule Fc1ccc2c(c1)C1=C(CO2)C(c2ccc(Cl)cc2)NC(=S)N1 (stereo not given) is 55.7 µM

For this molecule ( C=C1C(OC/C=C/COC2O[C@@H]3O[C@@]4(C)CC[C@H]5[C@H](C)CC[C@@H](C2=C)[C@@]35OO4)O[C@@H]2O[C@@]3(C)CC[C@H]4[C@H](C)CC[C@@H]1[C@@]24OO3 (stereo not given in full) ), measured TGI is 51.3 µM

For reference, reported TGI for CCOC(=O)C(NC(=O)CC)(Nc1ccc(F)c(Cl)c1)C(F)(F)F (stereo not given) stands at > 100 µM

Record Nc1nc(=O)n(C2OC(CO)C(O)C2O)c2ncc(-c3ccc(-c4ccccc4)cc3)nc12 (stereo not given) , field TGI: 57.7 µM
